target: Organic anion transporter 3 (OAT3) (Rattus norvegicus, UniProt Q9R1U7); experiment: TP_TRANSPORTER: inhibition of Indoxyl sulfate uptake (Indoxyl sulfate: 2 uM, 3,4-Dihydroxymandelic acid: 1000 uM) in Xenopus laevis oocytes; type: functional, cell-based, Oocyte; parameters: scale not given: the % may be the effect or the level left; conditions: probe Indoxyl sulfate, read-out: Activity
attributeMeasured: activity at 1000 µM (%)
Write it as a number; the unit % goes unstated.

Q: Report activity at 1000 µM on Organic anion transporter 3 (OAT3) (Rattus norvegicus, UniProt Q9R1U7) for this entry: O=C(O)[C@H](O)c1ccc(O)c(O)c1
A: 33.5

----------
Target: UniProtKB Q9R1U7
Sequence (Q9R1U7 whole entry): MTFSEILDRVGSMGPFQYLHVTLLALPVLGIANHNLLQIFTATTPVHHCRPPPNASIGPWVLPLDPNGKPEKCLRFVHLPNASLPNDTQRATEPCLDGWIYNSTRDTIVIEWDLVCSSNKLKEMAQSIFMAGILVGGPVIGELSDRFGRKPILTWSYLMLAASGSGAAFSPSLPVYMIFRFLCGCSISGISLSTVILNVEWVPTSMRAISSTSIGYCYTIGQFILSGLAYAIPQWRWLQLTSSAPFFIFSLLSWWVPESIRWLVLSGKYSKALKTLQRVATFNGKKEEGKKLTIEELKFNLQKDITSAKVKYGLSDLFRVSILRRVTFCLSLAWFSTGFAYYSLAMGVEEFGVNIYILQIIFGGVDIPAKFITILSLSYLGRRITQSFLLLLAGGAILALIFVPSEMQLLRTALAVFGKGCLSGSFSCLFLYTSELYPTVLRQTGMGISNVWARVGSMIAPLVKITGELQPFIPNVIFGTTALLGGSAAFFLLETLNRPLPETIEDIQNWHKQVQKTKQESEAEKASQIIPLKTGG
Assay: TP_TRANSPORTER: inhibition of Indoxyl sulfate uptake (Indoxyl sulfate: 2 uM, Baclofen: 1000 uM) in Xenopus laevis oocytes
Format: functional, cell-based, Oocyte
Set-up: scale not given: the % may be the effect or the level left
Settings: probe Indoxyl sulfate, read-out: Activity
attributeMeasured: activity at 1000 µM
Give the number first and the unit second.

Q: # return recorded activity at 1000 µM for entry NCC(CC(=O)O)c1ccc(Cl)cc1 (stereo unspecified)
A: 25.7%

----------
target: Organic anion transporter 3 (OAT3) (Rattus norvegicus); assay: TP_TRANSPORTER: inhibition of Indoxyl sulfate uptake (Indoxyl sulfate: 2 uM, HVA: 1000 uM) in Xenopus laevis oocytes; assay type: functional, cell-based, Oocyte; set-up: scale not given: the % may be the effect or the level left; conditions: probe Indoxyl sulfate, read-out: Activity
attributeMeasured: activity at 1000 µM

Q: # return recorded activity at 1000 µM for entry COc1cc(CC(=O)O)ccc1O
A: 29.9%

----------
target: Organic anion transporter 3 (OAT3) (Rattus norvegicus, UniProt Q9R1U7); experiment: TP_TRANSPORTER: inhibition of Indoxyl sulfate uptake (Indoxyl sulfate: 2 uM, 6-mercaptopurine: 1000 uM) in Xenopus laevis oocytes; assay type: functional, cell-based, Oocyte; parameters: scale not given: the % may be the effect or the level left; conditions: probe Indoxyl sulfate, read-out: Activity
attributeMeasured: activity at 1000 µM (%)
Write it as a number; the unit % goes unstated.

Q: # return recorded activity at 1000 µM for entry Sc1ncnc2nc[nH]c12 [MERCAPTOPURINE ANHYDROUS]
A: 19.1

----------
Target: Organic anion transporter 3 (OAT3) (Rattus norvegicus, UniProt Q9R1U7)
Sequence (Q9R1U7 whole entry): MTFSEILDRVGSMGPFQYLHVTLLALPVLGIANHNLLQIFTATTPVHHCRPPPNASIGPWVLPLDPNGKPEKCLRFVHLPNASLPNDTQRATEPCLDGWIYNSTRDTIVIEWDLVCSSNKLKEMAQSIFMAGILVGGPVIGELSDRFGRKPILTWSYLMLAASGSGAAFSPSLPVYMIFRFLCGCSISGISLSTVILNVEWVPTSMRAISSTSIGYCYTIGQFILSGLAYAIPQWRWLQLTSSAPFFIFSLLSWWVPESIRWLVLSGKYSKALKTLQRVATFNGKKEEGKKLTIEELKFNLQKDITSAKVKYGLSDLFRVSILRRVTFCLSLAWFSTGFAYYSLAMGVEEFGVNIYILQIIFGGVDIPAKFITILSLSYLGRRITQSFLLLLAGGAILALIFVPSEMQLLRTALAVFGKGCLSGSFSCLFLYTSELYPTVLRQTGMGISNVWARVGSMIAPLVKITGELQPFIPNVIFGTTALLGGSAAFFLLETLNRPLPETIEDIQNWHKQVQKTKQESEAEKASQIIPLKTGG
Assay: TP_TRANSPORTER: inhibition of Indoxyl sulfate uptake (Indoxyl sulfate: 2 uM, 3-Methoxy-4-hydroxymandelic acid: 1000 uM) in Xenopus laevis oocytes
Assay type: functional, cell-based, Oocyte
Parameters: scale not given: the % may be the effect or the level left
Conditions: probe Indoxyl sulfate, read-out: Activity
attributeMeasured: activity at 1000 µM (%)
Write it as a number; the unit % goes unstated.

Q: # return recorded activity at 1000 µM for entry COc1cc([C@@H](O)C(=O)O)ccc1O
A: 27.3

----------
Biological target: Organic anion transporter 3 (OAT3) (Rattus norvegicus, UniProt Q9R1U7)
Sequence (Q9R1U7 whole entry): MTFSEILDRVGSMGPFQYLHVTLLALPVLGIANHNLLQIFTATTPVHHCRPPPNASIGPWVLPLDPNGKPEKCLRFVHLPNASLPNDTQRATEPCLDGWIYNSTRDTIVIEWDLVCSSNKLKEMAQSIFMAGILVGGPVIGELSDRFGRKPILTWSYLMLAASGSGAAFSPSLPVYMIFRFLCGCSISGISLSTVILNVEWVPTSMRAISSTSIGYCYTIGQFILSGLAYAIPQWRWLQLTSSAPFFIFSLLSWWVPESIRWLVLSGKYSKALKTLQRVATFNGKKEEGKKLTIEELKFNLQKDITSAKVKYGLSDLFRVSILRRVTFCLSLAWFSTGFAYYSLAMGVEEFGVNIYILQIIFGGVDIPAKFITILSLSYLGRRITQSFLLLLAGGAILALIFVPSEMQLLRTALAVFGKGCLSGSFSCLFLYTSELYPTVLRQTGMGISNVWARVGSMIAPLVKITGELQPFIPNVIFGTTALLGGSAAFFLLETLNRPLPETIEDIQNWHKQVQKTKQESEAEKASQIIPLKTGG
Experiment: TP_TRANSPORTER: inhibition of Indoxyl sulfate uptake (Indoxyl sulfate: 2 uM, 5-Methoxytryptophol: 1000 uM) in Xenopus laevis oocytes
Type: functional, cell-based, Oocyte
Set-up: scale not given: the % may be the effect or the level left
Details: probe Indoxyl sulfate, read-out: Activity
attributeMeasured: activity at 1000 µM (%)
Write it as a number; the unit % goes unstated.

Q: # return recorded activity at 1000 µM for entry COc1ccc2[nH]cc(CCO)c2c1
A: 26.8

----------
Target: UniProt Q9R1U7
Sequence (Q9R1U7 whole entry): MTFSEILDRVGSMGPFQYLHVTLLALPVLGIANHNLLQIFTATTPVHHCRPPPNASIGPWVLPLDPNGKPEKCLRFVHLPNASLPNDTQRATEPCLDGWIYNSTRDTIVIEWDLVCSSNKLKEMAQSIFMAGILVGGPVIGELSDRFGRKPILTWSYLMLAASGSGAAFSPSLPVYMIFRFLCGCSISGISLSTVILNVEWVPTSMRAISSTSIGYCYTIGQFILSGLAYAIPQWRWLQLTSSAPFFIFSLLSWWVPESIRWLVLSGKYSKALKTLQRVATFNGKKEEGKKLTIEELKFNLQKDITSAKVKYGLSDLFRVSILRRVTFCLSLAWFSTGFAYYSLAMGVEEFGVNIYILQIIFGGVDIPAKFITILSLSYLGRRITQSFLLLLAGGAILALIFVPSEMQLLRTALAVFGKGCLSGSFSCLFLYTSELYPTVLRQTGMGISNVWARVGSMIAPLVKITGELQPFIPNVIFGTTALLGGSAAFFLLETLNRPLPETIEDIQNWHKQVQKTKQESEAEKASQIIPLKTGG
Experiment: TP_TRANSPORTER: inhibition of Indoxyl sulfate uptake (Indoxyl sulfate: 2 uM, Benzoic acid: 1000 uM) in Xenopus laevis oocytes
Type: functional, cell-based, Oocyte
Parameters: scale not given: the % may be the effect or the level left
Conditions: probe Indoxyl sulfate, read-out: Activity
attributeMeasured: activity at 1000 µM (%)
Write it as a number; the unit % goes unstated.

Q: # return recorded activity at 1000 µM for entry O=C(O)c1ccccc1
A: 71.6

----------
biological target: Organic anion transporter 3 (OAT3) (Rattus norvegicus); assay: TP_TRANSPORTER: inhibition of Indoxyl sulfate uptake (Indoxyl sulfate: 2 uM, Cefazolin: 1000 uM) in Xenopus laevis oocytes; assay type: functional, cell-based, Oocyte; set-up: scale not given: the % may be the effect or the level left; settings: probe Indoxyl sulfate, read-out: Activity
attributeMeasured: activity at 1000 µM (%)
Write it as a number; the unit % goes unstated.

Q: # return recorded activity at 1000 µM for entry Cc1nnc(SCC2=C(C(=O)O)N3C(=O)[C@@H](NC(=O)Cn4cnnn4)[C@H]3SC2)s1
A: 13.6
